Measured MIC, listed per entry.
- Test system: HeLa
- method: Minimum inhibitory concentration against Coxsackie virus B4 in HeLa cell cultures
- Assay type: functional
- measurement_parameters: Homo sapiens

Use the examples below as a reference point.
What does the record list as MIC for Cc1cn(C2C=C(C#N)C(CO)O2)c(=O)[nH]c1=O (centres undefined) ?
> 200 µg/mL

// next record N#C[C@H]1[C@@H](O)[C@H](n2ccc(=O)[nH]c2=O)O[C@@H]1CO
> 200 µg/mL

Ok, now CC(C)(C)[Si](C)(C)OCC1OC(n2ccc(N)nc2=O)C(O[Si](C)(C)C(C)(C)C)C1C#N (centres undefined)
> 1 µg/mL

Consider now this further compound.
Item under review: Cc1cn(C2OC(CO)C(C#N)C2O)c(=O)[nH]c1=O (centres undefined) . Reported MIC?
> 200 µg/mL

---

MIC listing for selected compounds.
- System: HeLa
- method: Minimum inhibitory concentration against Vesicular stomatitis virus in HeLa cell cultures
- Assay type: functional
- measurement_parameters: Homo sapiens

Please review the following examples before continuing.
Requested field: MIC. Item: N#C[C@@H]1[C@@H](O)[C@H](n2cnc3c(N)ncnc32)O[C@@H]1CO
150 µg/mL

What do you have for Cc1cn(C2C=C(C#N)C(CO)O2)c(=O)[nH]c1=O (centres undefined) ?
150 µg/mL

Cool, now CC(=O)Nc1ccn(C2OC(CO[Si](C)(C)C(C)(C)C)C(C#N)C2O[Si](C)(C)C(C)(C)C)c(=O)n1 (centres undefined)
> 1 µg/mL

Another compound: Cc1cn(C2CC(C#N)C(CO[Si](C)(C)C(C)(C)C)O2)c(=O)[nH]c1=O (centres undefined)
> 40 µg/mL

More entries:
// MIC lookup, key: N#C[C@H]1[C@@H](O)[C@H](n2ccc(=O)[nH]c2=O)O[C@@H]1CO
> 200 µg/mL

Repeat with N#C[C@@H]1[C@@H](O)[C@H](n2ccc(=O)[nH]c2=O)O[C@@H]1CO
> 200 µg/mL

Now consider Cc1cn([C@H]2C[C@@H](C#N)[C@@H](CO)O2)c(=O)[nH]c1=O and answer again.
> 400 µg/mL

How about CC(C)(C)[Si](C)(C)OC[C@H]1O[C@@H](n2cnc3c(N)ncnc32)[C@H](O[Si](C)(C)C(C)(C)C)[C@@H]1C#N ?
150 µg/mL

Same question for N#CC1C(CO)OC(n2ccc(N)nc2=O)C1O (centres undefined) please.
70 µg/mL

Can you handle CC(C)(C)[Si](C)(C)OC[C@H]1O[C@@H](n2cnc3c(N)ncnc32)[C@H](O[Si](C)(C)C(C)(C)C)[C@H]1C#N next?
> 40 µg/mL

Let us now turn to NC(=O)c1ncn([C@@H]2O[C@H](CO)[C@@H](O)[C@H]2O)n1
20 µg/mL

Can you handle Nc1ncnc2c1ncn2C[C@H](O)CO [(S)-DHPA] next?
> 400 µg/mL

Input CC(C)(C)[Si](C)(C)OC[C@H]1O[C@@H](n2ccc(=O)[nH]c2=O)[C@H](O[Si](C)(C)C(C)(C)C)[C@H]1C#N
> 1 µg/mL

Note, next up: Nc1nccc2c1ncn2[C@@H]1C[C@H](CO)[C@@H](O)[C@H]1O
1 µg/mL

Next up: CC(C)(C)[Si](C)(C)OC[C@H]1O[C@@H](n2ccc(=O)[nH]c2=O)[C@H](O[Si](C)(C)C(C)(C)C)[C@@H]1C#N
> 10 µg/mL

---

- method: Minimum cytotoxic concentration in HeLa cell cultures
- Assay type: cell-based
- measurement_parameters: human, HeLa cells
metric_name: MCC

Recorded results for 4 compounds are shown here.
What value of measured MCC is listed for CC(C)(C)[Si](C)(C)OC[C@H]1O[C@@H](n2cnc3c(N)ncnc32)[C@H](O[Si](C)(C)C(C)(C)C)[C@@H]1C#N ?
400 µg/mL

Again, but for Nc1nccc2c1ncn2[C@@H]1C[C@H](CO)[C@@H](O)[C@H]1O [3-DEAZAARISTEROMYCIN A]
> 400 µg/mL

Try the compound N#C[C@H]1[C@@H](O)[C@H](n2ccc(=O)[nH]c2=O)O[C@@H]1CO
> 200 µg/mL

Do the same for NC(=O)c1ncn([C@@H]2O[C@H](CO)[C@@H](O)[C@H]2O)n1 [RIBAVIRIN] please
> 200 µg/mL

***
Need MCC of N#C[C@@H]1[C@@H](O)[C@H](n2cnc3c(N)ncnc32)O[C@@H]1CO , thanks.
400 µg/mL

Same lookup for Cc1cn(C2C=C(C#N)C(CO)O2)c(=O)[nH]c1=O (centres undefined) , please.
400 µg/mL

Request: N#CC1C(CO)OC(n2ccc(N)nc2=O)C1O (centres undefined)
100 µg/mL

---

MCC: recorded values
- method: Minimum cytotoxic concentration in primary rabbit kidney cell cultures
- Assay type: cell-based, Oryctolagus cuniculus
- measurement_parameters: primary rabbit kidney cells

Some compounds with recorded MCC:
Would you kindly share the measured MCC for CC(C)(C)[Si](C)(C)OC[C@H]1O[C@@H](n2ccc(=O)[nH]c2=O)[C@H](O[Si](C)(C)C(C)(C)C)[C@H]1C#N ?
> 4 µg/mL

Here is the next compound: N#CC1C(CO)OC(n2ccc(N)nc2=O)C1O (centres undefined)
> 100 µg/mL

Would you mind doing N#C[C@H]1[C@@H](O)[C@H](n2cnc3c(N)ncnc32)O[C@@H]1CO as well?
> 400 µg/mL

Then this compound: CC(C)(C)[Si](C)(C)OC[C@H]1O[C@@H](n2cnc3c(N)ncnc32)[C@H](O[Si](C)(C)C(C)(C)C)[C@@H]1C#N
10 µg/mL

# repeat for Cc1cn(C2CC(C#N)C(CO[Si](C)(C)C(C)(C)C)O2)c(=O)[nH]c1=O (centres undefined)
> 100 µg/mL

# context switch: different compound, same MCC
Requested read-out: MCC. Entry: CC(C)(C)[Si](C)(C)OC[C@H]1O[C@@H](n2cnc3c(N)ncnc32)[C@H](O[Si](C)(C)C(C)(C)C)[C@H]1C#N
> 100 µg/mL

---

- method: Minimum cytotoxic concentration in primary rabbit kidney cell cultures
- Type: cell-based, Oryctolagus cuniculus
- measurement_parameters: primary rabbit kidney cells
metric_name: MCC

Form field: reported MCC of CC(C)(C)[Si](C)(C)OCC1OC(n2ccc(N)nc2=O)C(O[Si](C)(C)C(C)(C)C)C1C#N (stereo not drawn)
> 10 µg/mL

Turning to the following compound.
Query: MCC; subject: CC(=O)Nc1ccn(C2OC(CO[Si](C)(C)C(C)(C)C)C(C#N)C2O[Si](C)(C)C(C)(C)C)c(=O)n1 (stereo not drawn)
> 4 µg/mL

---

- method: inimum cytotoxic concentration in Vero cell cultures
- Type: cell-based
- measurement_parameters: chlorocebus sabaeus, Vero cells
metric_name: MCC

Form field: reported MCC of CC(C)(C)[Si](C)(C)OC[C@H]1O[C@@H](n2cnc3c(N)ncnc32)[C@H](O[Si](C)(C)C(C)(C)C)[C@H]1C#N
> 40 µg/mL

---

- System: Vaccinia virus
- method: Minimum inhibitory concentration against Vaccinia virus in primary rabbit kidney cell cultures
- Assay type: functional
- measurement_parameters: Orthopoxvirus vaccinia
metric_name: MIC (µg/mL)
Number only, in µg/mL; omit the unit.

Reported MIC, compound Cc1cn(C2OC(CO)C(C#N)C2O)c(=O)[nH]c1=O (stereo not drawn) : ____
150

Others:
Endpoint output: MIC of Nc1ncnc2c1ccn2[C@@H]1O[C@H](CO)[C@@H](O)[C@H]1O . Value?
0.1

Try this compound too: N#C[C@@H]1[C@@H](O)[C@H](n2cnc3c(N)ncnc32)O[C@@H]1CO
4

Again, but for Nc1nccc2c1ncn2[C@@H]1C[C@H](CO)[C@@H](O)[C@H]1O
2

For N#C[C@@H]1[C@@H](O)[C@H](n2ccc(=O)[nH]c2=O)O[C@@H]1CO then?
4

Same for N#CC1C(CO)OC(n2ccc(N)nc2=O)C1O (stereo not drawn)
40

# repeat for Nc1ncnc2c1ncn2C[C@H](O)CO [(S)-DHPA]
20

Query Cc1cn([C@H]2C[C@H](C#N)[C@@H](CO)O2)c(=O)[nH]c1=O next
20

---

- System: HeLa
- method: Minimum inhibitory concentration against Coxsackie virus B4 in HeLa cell cultures
- Type: functional
- measurement_parameters: Homo sapiens
compounds and their reported MIC
Write the value in µg/mL as a bare number.

Report MIC for CC(=O)Nc1ccn(C2OC(CO[Si](C)(C)C(C)(C)C)C(C#N)C2O[Si](C)(C)C(C)(C)C)c(=O)n1 (stereo not given) tested on HeLa.
2

With those in mind, consider the next compound.
Could you share what MIC was measured for Nc1ncnc2c1ncn2C[C@H](O)CO [(S)-DHPA] , tested on HeLa?
2

---

- System: HeLa
- method: Minimum inhibitory concentration against Vesicular stomatitis virus in HeLa cell cultures
- Type: functional
- measurement_parameters: Homo sapiens
As shown below, each of these compounds has a reported MIC value.

Answered cases to consult:
If you can, please state the reported MIC value of Cc1cn([C@H]2C[C@H](C#N)[C@@H](CO)O2)c(=O)[nH]c1=O .
> 100 µg/mL

Please give the result for CC(C)(C)[Si](C)(C)OCC1OC(n2ccc(N)nc2=O)C(O[Si](C)(C)C(C)(C)C)C1C#N (centres undefined) too.
> 1 µg/mL

Another compound to check: Cc1cn(C2OC(CO)C(C#N)C2O)c(=O)[nH]c1=O (centres undefined)
> 200 µg/mL

We next turn to a different compound, shown below.
So what does the record say about MIC for Nc1ncnc2c1ccn2[C@@H]1O[C@H](CO)[C@@H](O)[C@H]1O ?
0.07 µg/mL
